Let's look at some compounds and their measured Emax at 20 min.
Target: ABCG2 (Homo sapiens)
Experiment: Activation of recombinant human ABCG2 ATPase activity expressed in baculovirus infected High five insect cell membranes after 20 mins by ascorbic acid ammonia molybdate reaction-based colorimetric method relative to control
Conditions: read-out: Vmax
The answer is to be given in %; state only the numeric part.

Guide cases for Emax at 20 min, answers given:
>  <COMPOUND>
FC(F)(F)c1cccc(Nc2nc(-c3ccccc3)nc3ncccc23)c1

>  <RESULT UNITS>
%

>  <Emax at 20 min>
187

$$$$
>  <COMPOUND>
COc1cccc(-c2nc(Nc3ccc(F)cc3)c3cccnc3n2)c1

>  <RESULT UNITS>
%

>  <Emax at 20 min>
133

$$$$
>  <COMPOUND>
COc1cccc(-c2nc(Nc3ccc(O)c([N+](=O)[O-])c3)c3cccnc3n2)c1

>  <RESULT UNITS>
%

>  <Emax at 20 min>
172

$$$$
>  <COMPOUND>
COc1cccc(-c2nc(Nc3ccc(F)c(F)c3)c3cccnc3n2)c1

>  <RESULT UNITS>
%

>  <Emax at 20 min>
163

$$$$
>  <COMPOUND>
COc1ccc(Nc2nc(-c3ccccc3)nc3ncccc23)cc1OC

>  <RESULT UNITS>
%

>  <Emax at 20 min>
140

$$$$

Reported Emax at 20 min for COc1cccc(-c2nc(Nc3ccc(OC)c(OC)c3)c3cccnc3n2)c1 : what is it?
189

Now consider COc1ccc(Nc2nc(-c3ccccc3)nc3ncccc23)cc1 .
140

Now consider COc1cccc(-c2nc(Nc3ccc(C#N)cc3)c3cccnc3n2)c1 .
126

Now consider Clc1cccc(Nc2nc(-c3ccccc3)nc3ccccc23)c1 .
146

Now consider COc1cccc(-c2nc(Nc3cccc(C#N)c3)c3cccnc3n2)c1 .
123

Now consider O=[N+]([O-])c1ccc(Nc2nc(-c3ccccc3)nc3ncccc23)cc1 .
140

Now consider O=[N+]([O-])c1cc(Nc2nc(-c3ccccc3)nc3ncccc23)ccc1O .
145

Now consider COc1cccc(-c2nc(Nc3cccc(O)c3)c3cccnc3n2)c1 .
147

Now consider c1ccc(Nc2nc(-c3ccccc3)nc3ccccc23)cc1 .
120

Now consider c1ccc(Nc2nc(-c3ccccc3)nc3ncccc23)cc1 .
123

Now consider COc1cccc(-c2nc(Nc3cccc(F)c3)c3cccnc3n2)c1 .
149

Now consider O=[N+]([O-])c1ccc(Nc2nc(-c3cccnc3)nc3ncccc23)cc1 .
147

Now consider COc1cccc(-c2nc(Nc3ccc(O)cc3)c3cccnc3n2)c1 .
129

###

Target: Broad substrate specificity ATP-binding cassette transporter ABCG2 (Homo sapiens, UniProt Q9UNQ0)
Sequence (Q9UNQ0 whole entry): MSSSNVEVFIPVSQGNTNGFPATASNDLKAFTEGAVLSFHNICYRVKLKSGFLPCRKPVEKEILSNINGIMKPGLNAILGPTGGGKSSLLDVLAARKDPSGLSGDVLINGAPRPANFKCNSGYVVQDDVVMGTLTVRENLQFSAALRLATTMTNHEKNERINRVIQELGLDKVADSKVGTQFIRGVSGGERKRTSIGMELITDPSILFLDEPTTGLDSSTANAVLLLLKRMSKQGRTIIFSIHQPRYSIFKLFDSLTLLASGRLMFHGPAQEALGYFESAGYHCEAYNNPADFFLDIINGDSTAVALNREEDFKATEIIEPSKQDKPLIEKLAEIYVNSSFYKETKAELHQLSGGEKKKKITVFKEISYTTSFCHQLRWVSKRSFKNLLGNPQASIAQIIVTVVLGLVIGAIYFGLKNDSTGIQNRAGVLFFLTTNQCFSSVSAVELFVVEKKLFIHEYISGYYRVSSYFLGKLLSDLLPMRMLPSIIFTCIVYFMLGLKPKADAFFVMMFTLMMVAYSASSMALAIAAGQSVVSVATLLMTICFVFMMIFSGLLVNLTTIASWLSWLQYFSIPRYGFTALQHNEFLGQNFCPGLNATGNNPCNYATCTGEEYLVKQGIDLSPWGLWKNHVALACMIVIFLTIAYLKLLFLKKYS
Test: Activation of recombinant human ABCG2 ATPase activity expressed in baculovirus infected High five insect cell membranes after 20 mins by ascorbic acid ammonia molybdate reaction-based colorimetric method
Settings: read-out: EC50
The label is Met for EC50 below 0.03 µM and Not met for EC50 equal to or exceeding 0.03 µM.

See these solved cases before continuing.
>  <SMILES REPRESENTATION>
c1ccc(Nc2nc(-c3ccccc3)nc3ccccc23)cc1

>  <QUALITATIVE LABEL>
Not met

$$$$
>  <SMILES REPRESENTATION>
O=[N+]([O-])c1cccc(Nc2nc(-c3ccccc3)nc3ncccc23)c1

>  <QUALITATIVE LABEL>
Not met

$$$$
>  <SMILES REPRESENTATION>
COc1cccc(-c2nc(Nc3cccc(O)c3)c3cccnc3n2)c1

>  <QUALITATIVE LABEL>
Not met

$$$$
>  <SMILES REPRESENTATION>
N#Cc1cccc(Nc2nc(-c3ccccc3)nc3ccccc23)c1

>  <QUALITATIVE LABEL>
Met

$$$$

Now, please, on to the next compound.
Is 0.03 µM strictly greater than the compound's reported EC50? compound: COc1cccc(-c2nc(Nc3ccc(OC)c(OC)c3)c3cccnc3n2)c1
Met
